Data origin: ChEMBL document CHEMBL3861954

molecular target: Transthyretin (Homo sapiens); experiment: Binding affinity to recombinant human wild type TTR expressed in Escherichia coli BL21 (DE3) assessed as dissociation constants for first binding site of TTR by isothermal titration calorimetric method
Quantity measured: pKd
Remember the convention: pKd equals -log10 of concentration in molar.

Prompt: Item `Cc1oc(/C=C/c2ccc(Cl)o2)cc1C(=O)O` : provide pKd
Completion: 8.41

* * *

target: Transthyretin (Homo sapiens, UniProt P02766); assay: Binding affinity to recombinant human wild type TTR expressed in Escherichia coli BL21 (DE3) assessed as dissociation constants for second binding site of TTR by isothermal titration calorimetric method
Quantity measured: Kd (nM)
Numeric answer only, unit nM assumed.

Prompt: Item `Cc1oc(/C=C/c2ccc(Cl)o2)cc1C(=O)O` : provide Kd
Completion: 278
